# pIC50 listing for each entry below
target: GST-tagged GDP-loaded KRAS G12V (amino acids 1-169) (Homo sapiens, UniProt P01116, G12V); construct: GST-tagged GDP-loaded KRAS G12V (amino acids 1-169); assay: KRAS G12V probe displacement assay (TR-FRET); details: displacement of biotinylated probe 2 from GDP-loaded KRAS G12V
Sequence (P01116 1-169 isoform P01116-2 G12V): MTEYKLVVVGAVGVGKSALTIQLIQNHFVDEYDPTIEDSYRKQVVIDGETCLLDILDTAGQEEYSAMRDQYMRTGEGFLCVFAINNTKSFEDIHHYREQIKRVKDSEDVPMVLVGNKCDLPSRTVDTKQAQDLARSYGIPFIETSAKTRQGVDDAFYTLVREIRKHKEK
Recall that pIC50 is obtained by taking minus log10 of the concentration measured in molar.

Reference set (4 entries):
In [3]: df
Out[3]:
                           structure_smiles  observed_value
0  Cc1cc(N)nc(-c2c(Cl)cc3c(N4CCC(C#N)CC4)nc(OC[C@@]45CCCN4C[C@H](F)C5)nc3c2F)c1C(F)(F)F            7.96
1  Nc1nc2c(-c3c(C(F)(F)F)cc4c(N[C@H]5C[C@H](F)C5)nc(OC[C@@]56CCCN5C[C@H](F)C6)nc4c3F)ccc(F)c2s1            7.85
2  Nc1cc(Cl)c(C(F)(F)F)c(-c2ncc3c(N4CCOCC4)nc(OC[C@@]45CCCN4C[C@H](F)C5)nc3c2F)c1            7.96
3  CC[C@@H]1COCCN1c1nc(OC[C@@]23CCCN2C[C@H](F)C3)nc2c(F)c(-c3cc(N)cc(Cl)c3C(F)(F)F)ncc12            7.92

Would you kindly look at the next entry?
INPUT: Entry `Nc1nc2c(-c3c(C(F)(F)F)cc4c(N[C@H]5C[C@H](O)C5)nc(OC[C@@]56CCCN5C[C@H](F)C6)nc4c3F)ccc(F)c2s1` : reported pIC50 = ?
OUTPUT: 8.43
